These data points were gathered from ChEMBL document CHEMBL3872210.

# method.description: Dark toxicity against human MCF7 cells assessed as reduction in cell survival measured after 30 mins by MTT assay
# Format: cell-based
quantity.kind: CC50 at 0.5 h

Value lookup for CC50 at 0.5 h; key = CCOC(=O)c1cc2c(n1Cc1ccccc1)-c1nc(N)ncc1CCC2 73.6 µM

Also need Cn1c(C(N)=O)cc2c1-c1nc(N)ncc1CCC2 , thanks. > 100 µM

Likewise for COc1ccc(Cn2c(C(N)=O)cc3c2-c2nc(NC4CCCCC4)ncc2CCC3)cc1 ? > 100 µM

Repeat with CCOC(=O)c1cc2c(n1C)-c1nc(Nc3ccccc3)ncc1CCC2 > 100 µM

Another: CCOC(=O)c1cc2c(n1Cc1ccc(OC)cc1)-c1nc(NC3CCCCC3)ncc1CCC2 > 100 µM

Moving on to CCOC(=O)c1cc2c(n1Cc1ccc(OC)cc1)-c1nc(N)ncc1CCC2 > 100 µM

Param item: Cn1c(C(N)=O)cc2c1-c1nc(Nc3ccccc3)ncc1CCC2 > 100 µM

Next compound: NC(=O)c1cc2c(n1Cc1ccccc1)-c1nc(Nc3ccccc3)ncc1CCC2 66.5 µM

Please answer likewise for CCOC(=O)c1cc2c(n1Cc1ccc(OC)cc1)-c1nc(Nc3ccccc3)ncc1CCC2 > 100 µM

Now try CCOC(=O)c1cc2c(n1C)-c1nc(NC3CCCCC3)ncc1CCC2 . > 100 µM

###

# method.description: Photocytotoxicity against human HT-29 cells assessed as reduction in cell survival irradiated with 1.5 J/cm2 UV-light for 5 mins measured after 48 hrs by MTT assay
# Type: functional, cell-based
# condition: HT-29, light or radiation study
Reported EC50 values for the following compounds.
Use nM as the unit, but write only the number.

Use these answered entries as a reference point.
CCOC(=O)c1cc2c(n1C)-c1nc(NC3CCCCC3)ncc1CCC2 :: 90
CCOC(=O)c1cc2c(n1Cc1ccc(OC)cc1)-c1nc(NC3CCCCC3)ncc1CCC2 :: 140
NC(=O)c1cc2c(n1Cc1ccccc1)-c1nc(Nc3ccccc3)ncc1CCC2 :: 360
CCOC(=O)c1cc2c(n1Cc1ccc(OC)cc1)-c1nc(Nc3ccccc3)ncc1CCC2 :: 70
COc1ccc(Cn2c(C(N)=O)cc3c2-c2nc(NC4CCCCC4)ncc2CCC3)cc1 :: 410
CCOC(=O)c1cc2c(n1Cc1ccccc1)-c1nc(Nc3ccccc3)ncc1CCC2 :: 700
CCOC(=O)c1cc2c(n1C)-c1nc(N)ncc1CCC2 :: 1720
NC(=O)c1cc2c(n1Cc1ccccc1)-c1nc(N)ncc1CCC2 :: 2170

Attention now turns to another entry.
Item under review: Cn1c(C(N)=O)cc2c1-c1nc(NC3CCCCC3)ncc1CCC2 . Reported EC50? 1500

###

# method.description: Selectivity index, ratio of CC50 for cytotoxicity against human HeLa cells to EC50 for photocytotoxicity against human HeLa cells
# Assay type: toxicity, cell-based
# condition: read-out: Ratio CC50/EC50
quantity.kind: selectivity ratio

Record excerpt, results attached:
CCOC(=O)c1cc2c(n1Cc1ccc(OC)cc1)-c1nc(N)ncc1CCC2 :: > 312
Cn1c(C(N)=O)cc2c1-c1nc(Nc3ccccc3)ncc1CCC2 :: > 90

Would you kindly share the measured selectivity ratio for CCOC(=O)c1cc2c(n1Cc1ccccc1)-c1nc(Nc3ccccc3)ncc1CCC2 ? > 355

And NC(=O)c1cc2c(n1Cc1ccccc1)-c1nc(N)ncc1CCC2 ? > 48

// next record CCOC(=O)c1cc2c(n1C)-c1nc(N)ncc1CCC2 > 139

Thanks! And Cn1c(C(N)=O)cc2c1-c1nc(NC3CCCCC3)ncc1CCC2 ? > 121

Ok, now CCOC(=O)c1cc2c(n1Cc1ccccc1)-c1nc(NC3CCCCC3)ncc1CCC2 > 1670
